system: human monoclonal antibody CRJB; assay type: binding
MEASURED_ATTRIBUTE: Binding of CRJB to linear peptide (PEPSCAN-ELISA signal)

For orientation, consider the following solved cases.
{"SEQUENCE_CHAIN": "TVKTTKESLVIISPS", "TARGET_OF_ASSAY": "human monoclonal antibody CRJB", "OBS_VALUE": 116}
{"SEQUENCE_CHAIN": "DYTIWMPENPRLGMS", "TARGET_OF_ASSAY": "human monoclonal antibody CRJB", "OBS_VALUE": 127}
{"SEQUENCE_CHAIN": "SHLRKLVPGFGKAYT", "TARGET_OF_ASSAY": "human monoclonal antibody CRJB", "OBS_VALUE": 132}
{"SEQUENCE_CHAIN": "LESIMTTKSVSFRRL", "TARGET_OF_ASSAY": "human monoclonal antibody CRJB", "OBS_VALUE": 114}
{"SEQUENCE_CHAIN": "PIYTILDKLGPWSPI", "TARGET_OF_ASSAY": "human monoclonal antibody CRJB", "OBS_VALUE": 89}

Query :: Requested field: Binding of CRJB to linear peptide (PEPSCAN-ELISA signal). Item: HYKSVRTWNEILPSK
Result :: 130

Query :: // lookup Binding of CRJB to linear peptide (PEPSCAN-ELISA signal) for TNSRGKRASKGSETC
Result :: 108

Query :: Recorded Binding of CRJB to linear peptide (PEPSCAN-ELISA signal) for KGSETCGFVDERGLY , please?
Result :: 97

Query :: What value of Binding of CRJB to linear peptide (PEPSCAN-ELISA signal) has been recorded for this entry: WCPPDQLVNLHDFRS
Result :: 119

Query :: What value of Binding of CRJB to linear peptide (PEPSCAN-ELISA signal) has been reported for the following sequence? PSGKCSGVAVSSTYC
Result :: 112

Query :: Look at this sequence and give its reported Binding of CRJB to linear peptide (PEPSCAN-ELISA signal). TSNETKWCPPDQLVN
Result :: 111

Query :: So what's the measured Binding of CRJB to linear peptide (PEPSCAN-ELISA signal) for this one? LRVGGRCHPHVNGVF
Result :: 143

Query :: # lookup: Binding of CRJB to linear peptide (PEPSCAN-ELISA signal) of NGFTCTGVVTEAENY
Result :: 101

Query :: Field request: Binding of CRJB to linear peptide (PEPSCAN-ELISA signal) | item: FRRLSHLRKLVPGFG
Result :: 108

Query :: Given the sequence HDFRSDEIEHLVVEE , what is its reported Binding of CRJB to linear peptide (PEPSCAN-ELISA signal)?
Result :: 107

Query :: What value of Binding of CRJB to linear peptide (PEPSCAN-ELISA signal) has been recorded for this entry: AAYNWKMAGDPRYEE
Result :: 106

Query :: Item under review: NHDYTIWMPENPRLG . Reported Binding of CRJB to linear peptide (PEPSCAN-ELISA signal)?
Result :: 119

Query :: # query: Binding of CRJB to linear peptide (PEPSCAN-ELISA signal) of entry SPIDIHHLSCPNNLV
Result :: 85

Query :: Need Binding of CRJB to linear peptide (PEPSCAN-ELISA signal), item MAGDPRYEESLHNPY
Result :: 116

Query :: GET /values?readout=Binding of CRJB to linear peptide (PEPSCAN-ELISA signal)&item= EAENYTNFVGYVTTT
Result :: 117

Query :: Reported Binding of CRJB to linear peptide (PEPSCAN-ELISA signal) for GSETCGFVDERGLYK : what is it?
Result :: 115

---

test system: human monoclonal antibody CRJB; format: binding
MEASURED_ATTRIBUTE: Binding of CRJB (10 μg/ml) to looped/cyclic peptide (PEPSCAN-ELISA)
Provide a numeric answer; units are not to be included.

Please review the following examples before continuing.
{"SEQUENCE_CHAIN": "CLDALESIMTTKSVS", "OBS_VALUE": 90}
{"SEQUENCE_CHAIN": "ECLDALESIMTTKSV", "OBS_VALUE": 90}
{"SEQUENCE_CHAIN": "CGVLGLRLMDGTWVA", "OBS_VALUE": 91}

Query :: Recorded Binding of CRJB (10 μg/ml) to looped/cyclic peptide (PEPSCAN-ELISA) for QQHMELLESSVIPLV , please?
Result :: 92

---

system: human monoclonal antibody CRJB; format: binding
MEASURED_ATTRIBUTE: Binding of CRJB to linear peptide (PEPSCAN-ELISA signal)
Give a plain numeric answer without units written out.

Take a look at these entries with their results.
{"SEQUENCE_CHAIN": "ESLHNPYPDYRWLRT", "TARGET_OF_ASSAY": "human monoclonal antibody CRJB", "OBS_VALUE": 132}
{"SEQUENCE_CHAIN": "HFRPTPDACRAAYNW", "TARGET_OF_ASSAY": "human monoclonal antibody CRJB", "OBS_VALUE": 113}
{"SEQUENCE_CHAIN": "GKAYTIFNKTLMEAD", "TARGET_OF_ASSAY": "human monoclonal antibody CRJB", "OBS_VALUE": 127}

Query :: Return reported Binding of CRJB to linear peptide (PEPSCAN-ELISA signal); argument: TTKSVSFRRLSHLRK
Result :: 118

Query :: Field request: Binding of CRJB to linear peptide (PEPSCAN-ELISA signal) | item: FVGYVTTTFKRKHFR
Result :: 111

Query :: Requested field: Binding of CRJB to linear peptide (PEPSCAN-ELISA signal). Item: TTFKRKHFRPTPDAC
Result :: 99

Query :: Name the recorded Binding of CRJB to linear peptide (PEPSCAN-ELISA signal) for KAYTIFNKTLMEADA .
Result :: 123

Query :: Bench note: what Binding of CRJB to linear peptide (PEPSCAN-ELISA signal) did RAAYNWKMAGDPRYE show?
Result :: 130

Query :: Param item = WNEILPSKGCLRVGG ; retrieve measured Binding of CRJB to linear peptide (PEPSCAN-ELISA signal).
Result :: 136

Query :: Need Binding of CRJB to linear peptide (PEPSCAN-ELISA signal) of MSCDIFTNSRGKRAS , thanks.
Result :: 110

Query :: Which Binding of CRJB to linear peptide (PEPSCAN-ELISA signal) reading was recorded for the sequence VFFNGIILGPDGNVL ?
Result :: 132

Query :: Can you share its Binding of CRJB to linear peptide (PEPSCAN-ELISA signal)? I mean this sequence: RLMDGTWVAMQTSNE
Result :: 113

Query :: So what's the measured Binding of CRJB to linear peptide (PEPSCAN-ELISA signal) for this one? VLGLRLMDGTWVAMQ
Result :: 141

Query :: Form field: reported Binding of CRJB to linear peptide (PEPSCAN-ELISA signal) of RWLRTVKTTKESLVI
Result :: 110

Query :: Quick one: Binding of CRJB to linear peptide (PEPSCAN-ELISA signal) for FSYMELKVGYILAIK ?
Result :: 112

Query :: Given CSTNHDYTIWMPENP , state its recorded Binding of CRJB to linear peptide (PEPSCAN-ELISA signal).
Result :: 106

Query :: Binding of CRJB to linear peptide (PEPSCAN-ELISA signal) lookup needed for RKHFRPTPDACRAAY , thanks.
Result :: 107

Query :: I would be grateful if you could share the reported Binding of CRJB to linear peptide (PEPSCAN-ELISA signal) for NKTLMEADAHYKSVR .
Result :: 116

---

tested on: human monoclonal antibody CRJB; assay type: binding
Entries and their Binding of CRJB to linear peptide (PEPSCAN-ELISA signal)
Respond using a number only.

{"SEQUENCE_CHAIN": "RLSHLRKLVPGFGKA", "OBS_VALUE": 123}
{"SEQUENCE_CHAIN": "VRTWNEILPSKGCLR", "OBS_VALUE": 124}
{"SEQUENCE_CHAIN": "NPRLGMSCDIFTNSR", "OBS_VALUE": 113}
{"SEQUENCE_CHAIN": "TGVVTEAENYTNFVG", "OBS_VALUE": 110}

Now take the following sequence into account.
Query :: Lookup: Binding of CRJB to linear peptide (PEPSCAN-ELISA signal) / human monoclonal antibody CRJB / TWNEILPSKGCLRVG
Result :: 146
